pIC50 listing for selected compounds.
molecular target: protein-protein interaction between Kras and SOS1 (biotin-tagged human Kras loaded with GDP, His-tagged human SOS1) (Homo sapiens (Human), UniProt P01116, G12D); assay: Protein-protein interaction inhibition between Kras and SOS1 (KrasG12D-SOS PPI) using AlphaScreen; assay type: biochemical; details: AlphaScreen; biotin-tagged human Kras loaded with GDP, His-tagged human SOS1; read-out: KRAS G12D-SOS PPI IC50;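 also: kras produced in E. coli, Ni-coupled donor beads and streptavidin acceptor beads, excitation 680 nm with emission detected at 520–620 nm via singlet oxygen transfer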
pIC50: −log10 of the molar value. Numbered stars: 1 amine (or outer) side, 2 acyl side, 3 side chain; on linkers, the order of the positions; unused ones are H or OH. Bridge positions count the residues as written; N and C are the ends. Square brackets hold non-standard residues; d marks the D form. Peptide text beside a SMILES is read from it. * marks the point of attachment. hPhe(3,5-F2-4-CF3) = N[C@@H](CCc1cc(F)c(C(F)(F)F)c(F)c1)C(=O)O; hPhe(3-Cl-4-CF3) = N[C@@H](CCc1ccc(C(F)(F)F)c(Cl)c1)C(=O)O; hPhe(4-CF3) = N[C@@H](CCc1ccc(C(F)(F)F)cc1)C(=O)O; ACHC(1R,2R) = O=C([C@@H]1CCCC[C@H]1N[*:1])[*:2]; NMeAbu(4,4,4-F3) = CN[C@@H](CC(F)(F)F)C(=O)O; NMePhe(4-Cl) = CN[C@@H](Cc1ccc(Cl)cc1)C(=O)O; NMePhe(4-Me) = CN[C@@H](Cc1ccc(C)cc1)C(=O)O; NMedβ3hAla = C[C@H](CC(=O)[*:2])N(C)[*:1]; NMeNva(5,5-F2) = CN[C@@H](CCC(F)F)C(=O)O; NMeGly(cPent) = CN[C@H](C(=O)O)C1CCCC1; NMeCha = CN[C@@H](CC1CCCCC1)C(=O)O; Hyp = O=C(O)[C@@H]1C[C@@H](O)CN1; NMeChg = CN[C@H](C(=O)O)C1CCCCC1; NMeD = CN[C@@H](CC(=O)O)C(=O)O; NMeL = CN[C@@H](CC(C)C)C(=O)O; Ahp(2) = CCCCC[C@H](N)C(=O)O; NMeV = CN[C@H](C(=O)O)C(C)C; d(β3hA) = C[C@@H](N)CC(=O)O; NMeA = CN[C@@H](C)C(=O)O; NMeAib = CNC(C)(C)C(=O)O; Piperidide = C1CCN(*)CC1; Pyrrolidide = C1CCN(*)C1; Ac5c = NC1(C(=O)O)CCCC1; Aze = O=C(O)[C@@H]1CCN1; Ethyl(2,2-F2) = FC(F)C*; Sar = CNCC(=O)O

compound	pIC50
CCCCC[C@@H]1NC(=O)[C@H](CC(C)C)N(C)C(=O)C[C@@H](C(=O)N2CCCCC2)N(C)C(=O)[C@H](C(C)C)N(C)C(=O)C2(CCCC2)NC(=O)[C@@H]2CCCN2C(=O)[C@H](CCc2ccc(C(F)(F)F)c(Cl)c2)NC(=O)CN(C)C(=O)[C@H](CC2CCCCC2)N(C)C(=O)[C@@H]2CCN2C(=O)[C@H](C)N(C)C1=O [Compound 1826] ([NMeL][Ahp(2)][NMeA][Aze][NMeCha][Sar][hPhe(3-Cl-4-CF3)]P[Ac5c][NMeV][NMeD]-Piperidide; lactam N-11)	7.00
CC[C@H](C)[C@@H]1NC(=O)[C@H](CC(C)C)N(C)C(=O)C[C@@H](C(=O)N2CCCCC2)N(C)C(=O)[C@H](C2CCCCC2)N(C)C(=O)C2(CCCC2)NC(=O)[C@@H]2C[C@@H](OCC(F)F)CN2C(=O)[C@H](CCc2ccc(C(F)(F)F)c(Cl)c2)NC(=O)CN(C)C(=O)[C@H](CC2CCCCC2)N(C)C(=O)CN(C)C(=O)CN(C)C1=O [Compound 2119] ([NMeL]I[Sar][Sar][NMeCha][Sar][hPhe(3-Cl-4-CF3)][Hyp](Ethyl(2,2-F2))[Ac5c][NMeChg][NMeD]-Piperidide; lactam N-11)	9.41
CCO[C@@H]1C[C@H]2C(=O)NC3(CCCC3)C(=O)N(C)[C@@H](C3CCCCC3)C(=O)N(C)[C@H](C(=O)N3CCCC3)CC(=O)N(C)[C@@H](CC(F)(F)F)C(=O)N[C@@H]([C@@H](C)CC)C(=O)N(C)CC(=O)N(C)CC(=O)N(C)[C@@H](CC3CCCCC3)C(=O)N(C)CC(=O)N[C@@H](CCc3cc(F)c(C(F)(F)F)c(F)c3)C(=O)N2C1 [Compound 1149] ([NMeAbu(4,4,4-F3)]I[Sar][Sar][NMeCha][Sar][hPhe(3,5-F2-4-CF3)][Hyp](Et)[Ac5c][NMeChg][NMeD]-Pyrrolidide; lactam N-11)	9.21
CC[C@H](C)[C@@H]1NC(=O)[C@H](C)N(C)C(=O)C[C@@H](C)N(C)C(=O)[C@H](C(C)C)N(C)C(=O)C(C)(C)N(C)C(=O)[C@@H]2CCCN2C(=O)[C@H](CCc2ccc(C(F)(F)F)c(Cl)c2)NC(=O)CN(C)C(=O)[C@H](CC2CCCCC2)N(C)C(=O)[C@@H]2CCN2C(=O)[C@H](C)N(C)C1=O [Compound 341] (cyclo([Aze][NMeCha][Sar][hPhe(3-Cl-4-CF3)]P[NMeAib][NMeV][NMedβ3hAla][NMeA]I[NMeA]))	8.54
CC[C@H](C)[C@@H]1NC(=O)[C@H](CC(C)C)N(C)C(=O)C[C@@H](C)N(C)C(=O)[C@H](CC(C)C)NC(=O)C(C)(C)N(C)C(=O)[C@H](CC(C)C)NC(=O)[C@H](CCc2cc(F)c(C(F)(F)F)c(F)c2)NC(=O)CN(C)C(=O)[C@H](Cc2ccc(Cl)cc2)N(C)C(=O)CN(C)C(=O)CN(C)C1=O [Compound 687] (cyclo(I[Sar][Sar][NMePhe(4-Cl)][Sar][hPhe(3,5-F2-4-CF3)]L[NMeAib]L[NMedβ3hAla][NMeL]))	7.80
CC[C@H](C)[C@@H]1NC(=O)[C@H](C(C)C)NC(=O)[C@@H]2CCCC[C@H]2NC(=O)[C@H](CC(C)C)N(C)C(=O)C2(CCCC2)NC(=O)[C@H](CC(C)C)N(C)C(=O)[C@H](CCc2ccc(C(F)(F)F)cc2)NC(=O)CN(C)C(=O)[C@H](Cc2ccc(Cl)cc2)N(C)C(=O)CN(C)C(=O)CN(C)C1=O [Compound 1126] (cyclo([Ac5c][NMeL][ACHC(1R,2R)]VI[Sar][Sar][NMePhe(4-Cl)][Sar][hPhe(4-CF3)][NMeL]))	6.60
CC[C@H](C)[C@@H]1NC(=O)[C@H](CC(C)C)N(C)C(=O)C[C@@H](C)NC(=O)[C@H](C2CCCC2)N(C)C(=O)C2(CCCC2)NC(=O)[C@@H]2CCCN2C(=O)[C@H](CCc2ccc(C(F)(F)F)c(Cl)c2)NC(=O)CN(C)C(=O)[C@H](Cc2ccc(C)cc2)N(C)C(=O)[C@@H]2CCN2C(=O)[C@H](C)NC1=O [Compound 1331] (cyclo(A[Aze][NMePhe(4-Me)][Sar][hPhe(3-Cl-4-CF3)]P[Ac5c][NMeGly(cPent)][d(β3hA)][NMeL]I))	8.96
CC[C@H](C)[C@@H]1NC(=O)[C@H](CC(C)C)N(C)C(=O)C[C@@H](C)NC(=O)[C@H](C2CCCC2)N(C)C(=O)C2(CCCC2)NC(=O)[C@@H]2CCCN2C(=O)[C@H](CCc2ccc(C(F)(F)F)c(Cl)c2)NC(=O)CN(C)C(=O)[C@H](Cc2ccc(C)cc2)N(C)C(=O)CN(C)C(=O)CN(C)C1=O [Compound 1471] (cyclo([Ac5c][NMeGly(cPent)][d(β3hA)][NMeL]I[Sar][Sar][NMePhe(4-Me)][Sar][hPhe(3-Cl-4-CF3)]P))	8.77
CC[C@H](C)[C@@H]1NC(=O)[C@H](CC(C)C)N(C)C(=O)C[C@@H](C(=O)N2CCCCC2)N(C)C(=O)[C@H](CCC(F)F)N(C)C(=O)C2(CCCC2)NC(=O)[C@@H]2CCCN2C(=O)[C@H](CCc2ccc(C(F)(F)F)c(Cl)c2)NC(=O)CN(C)C(=O)[C@H](CC2CCCCC2)N(C)C(=O)[C@@H]2CCN2C(=O)[C@H](C)N(C)C1=O [Compound 1660] ([NMeL]I[NMeA][Aze][NMeCha][Sar][hPhe(3-Cl-4-CF3)]P[Ac5c][NMeNva(5,5-F2)][NMeD]-Piperidide; lactam N-11)	7.80
